# assay-text: Cell viability assay for measurement of the protective activity of small molecules against cell death caused by Zika virus infection in human astrocytoma cells
# test-settings: SNB-19 Zika virus cytoprotection, ATP luminescence, 72 h; series mostly up to 46.1 µM
# Excerpt: National Center for Advancing Translational Sciences [NCATS] […] This cell viability assay measures the ATP content (level) in human astrocytoma cells (SNB-19) using a luminescence readout that is proportional to viable cell numbers. Decrease in the luminescence signal after Zika virus infection indicates the cell death caused by Zika virus. […]
Inconclusive results are not listed. Calls of active or inactive are those of the source. Calls follow the shape of the dose curve; as a rule, active = well fitted activation curve with a large enough effect; inconclusive = small, poorly fitted or top-dose-only effect; inactive = flat fitted curve, though single readings scatter.
Allowed answers: active, inactive

Consider the worked cases shown below.
CC1(C)Cc2c(sc(NC(=S)NC(=O)c3ccccc3)c2C(=O)O)CO1 | inactive
O=C(O)c1ccccc1NCCc1ccccc1 | inactive
CS(=O)(=O)c1ccc(-c2cn3ccccc3n2)cc1 | inactive

Attention now turns to another entry.
INPUT: Which outcome was assigned to COc1ccc(-c2cc(=S)ss2)cc1 in this test?
OUTPUT: inactive

====

# assay-text: Cell viability assay for measurement of the protective activity of small molecules against cell death caused by Zika virus infection in human astrocytoma cells
# test-settings: SNB-19 Zika virus cytoprotection, ATP luminescence, 72 h; series mostly up to 46.1 µM
Inconclusive results are not listed. The source made the active and inactive calls. Calls come from the whole dose curve; as a rule, active = well fitted activation curve with a large enough effect; inconclusive = small, poorly fitted or top-dose-only effect; inactive = flat fitted curve, though single readings scatter.
Outcomes you can answer with include only these: true (active), false (inactive)

Below are worked cases with known answers.
N#CC1(c2ccc(NC(=O)c3cccnc3NCc3ccncc3)cc2)CCCC1 | false
C[C@H](NC(=O)C(=O)Nc1ccccc1C(C)(C)C)C(=O)N[C@@H](CC(=O)O)C(=O)COc1c(F)c(F)cc(F)c1F | true
COc1ccc2nc(NC(=O)Nc3ccccc3)sc2c1 | false

INPUT: Hello, I am checking results. What call was entered for O=c1cc(-c2ccccc2)oc2cc(O)c(O)c(O)c12 ?
OUTPUT: false

====

# assay-text: Cell viability assay for measurement of the protective activity of small molecules against cell death caused by Zika virus infection in human astrocytoma cells
# test-settings: SNB-19 Zika virus cytoprotection, ATP luminescence, 72 h; series mostly up to 46.1 µM
# Description: National Center for Advancing Translational Sciences [NCATS] […] This cell viability assay measures the ATP content (level) in human astrocytoma cells (SNB-19) using a luminescence readout that is proportional to viable cell numbers. Decrease in the luminescence signal after Zika virus infection indicates the cell death caused by Zika virus. […]
Results filed as inconclusive are left out. Active and inactive are the calls of the source. The call rests on the fitted dose curve; in most records, active means well fitted activation curve with a large enough effect; inconclusive means small, poorly fitted or top-dose-only effect; inactive means flat fitted curve, though single readings scatter.
Outcomes you can answer with include only these: active, inactive

Solved entries:
CC(=O)Nc1ccc([C@H](C)C(=O)Nc2ncc(C(C)C)s2)cc1 | active
Oc1cc(O)cc(/C=C/c2ccc(O)c(O)c2)c1 | inactive
COc1cc2nc(-c3ccc(N4CCN(C)CC4)cc3)nc(NCCN3CCOCC3)c2cc1OC | active
COCCn1c2c([n+](Cc3cnccn3)c1C)C(=O)c1ccccc1C2=O | inactive
CCC(C)SSc1ncc[nH]1 (stereo unspecified) | active
O=c1cc(-c2ccccc2)oc2cc(O)cc(O)c12 | inactive
CO[C@H]1C(=O)[C@]2(C)[C@@H](OC)C[C@H]3OC[C@@]3(OC(C)=O)[C@H]2[C@H](OC(=O)c2ccccc2)[C@]2(O)C[C@H](OC(=O)[C@H](O)[C@@H](NC(=O)OC(C)(C)C)c3ccccc3)C(C)=C1C2(C)C | inactive
COc1cccc(-c2ccc(NC(=O)C3=C(C(=O)O)CCC3)c(F)c2)c1 | inactive
CCOCCOC(=O)/C=C/c1ccc(OC)cc1 | inactive
C[C@@H]1CCN(C(=O)CC#N)C[C@H]1N(C)c1ncnc2[nH]ccc12 | inactive

Below: the item to evaluate.
INPUT: Recorded test outcome, item Clc1ccccc1-c1nc(-c2ccncc2)no1
OUTPUT: inactive

====

# assay-text: Cell viability assay for measurement of the protective activity of small molecules against cell death caused by Zika virus infection in human astrocytoma cells
# test-settings: SNB-19 Zika virus cytoprotection, ATP luminescence, 72 h; series mostly up to 46.1 µM
Results filed as inconclusive are left out. Active and inactive are the calls of the source. Calls come from the whole dose curve; as a rule, active = well fitted activation curve with a large enough effect; inconclusive = small, poorly fitted or top-dose-only effect; inactive = flat fitted curve, though single readings scatter.
reported-property: outcome

O=C(O)[C@H](CC(=O)N1C[C@@H]2CCCC[C@H]2C1)Cc1ccccc1 | inactive
Nc1ccc2c(c1)CN1C(=O)c3ccccc3C1=N2 | inactive
Cc1csc(NC(=O)c2sc3nc4c(c(C(F)(F)F)c3c2N)CCC4)n1 | inactive
